target: T1, Recombinant Human DLL4 (R&D Systems Cat#1506-D4/CF) (human, UniProt Q9NR61 27-524); assay: ELISA, DLL4 coated on plate, Fab at 2.22 nM
T1 construct: Bought recombinant protein; also called delta-like protein 4; Delta-like 4
MEASURED QUANTITY: ELISA signal
Number only, no unit.

Prompt line: Identify measured ELISA signal associated with Fab VH5-51_IGHD5-18*01>3_IGHJ4*01 G100K/G104T S28R (H:KT S28R) & V3-4_IGLJ1*01 (Fab, V domains shown, Fab expressed in E. coli; Plasmid A adds CH1 with His6 and Flag tags to the heavy chain; Plasmid E adds lambda CL to the light chain; also called H:KT S28R & L:wt; G100K/G104T S28R & parent) VH: EVQLVQSGAEVKKPGESLKISCKGSGYRFTSYWIGWVRQMPGKGLEWMGIIYPGDSDTRYSPSFQGQVTISADKSISTAYLQWSSLKASDTAMYYCARRKYSYTYDYFDYWGQGTLVTVSS VL: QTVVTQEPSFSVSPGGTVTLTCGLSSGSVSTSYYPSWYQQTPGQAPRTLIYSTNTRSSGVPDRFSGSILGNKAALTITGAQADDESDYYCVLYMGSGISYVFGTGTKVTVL
Response line: 0
